The measured values listed here are drawn from ChEMBL document CHEMBL1961873.

Target: Ribosomal protein S6 kinase alpha-5 (Homo sapiens);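 note: mean inhibition of MSK1, from screening of the GSK PKIS inhibitor set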
Settings: at 1 µM
ENDPOINT: inhibition

Would you please look over these solved cases?
Cc1cc(O)cc(C)c1/C=C/c1cncc(C(=O)OC(C)(C)C)c1 :: 3.7%
CCS(=O)(=O)c1ccc(OC)c(Nc2ncc(-c3cccc(F)c3)o2)c1 :: 7.75%
CNC(=O)c1ncccc1Nc1nc(Nc2cc3c(cc2OC)CCCN3C(=O)CN(C)C)nc2[nH]ccc12 :: 3.98%

Challenge: Tell me the measured inhibition of `CS(=O)(=O)Nc1ccc(-c2ccc3c(NC(=O)C4CC4)n[nH]c3c2)cc1` , please.
Response given: 5.67%

Challenge: State the recorded inhibition for this entry: `CC(C)c1ccc(-c2cc(-c3c[nH]nc3-c3ccccn3)ccn2)cc1`
Response given: 1.63%

Challenge: Form field: reported inhibition of `COc1cccc(-n2ncc3c(N/N=C/c4ccc(C(=O)NCCN(C)C)cc4)ncnc32)c1`
Response given: 8.01%

Challenge: Entry `COc1ccc(Nc2ncc(-c3ccccc3)o2)cc1OC` : reported inhibition = ?
Response given: 1.73%

Challenge: Request the reported inhibition associated with `CS(=O)(=O)CCNCc1ccc(-c2ccc3ncnc(Nc4ccc(OCc5ccccc5)cc4)c3c2)o1`
Response given: 0.66%

Challenge: Give its inhibition value. Item: `c1cnn2ncc(-c3ccnc(NCCCN4CCOCC4)n3)c2c1`
Response given: 6.41%
